SYSTEM UNDER TEST: human Adenosine A2b receptor (Homo sapiens (Human), UniProt P29275)
Sequence (P29275 whole entry): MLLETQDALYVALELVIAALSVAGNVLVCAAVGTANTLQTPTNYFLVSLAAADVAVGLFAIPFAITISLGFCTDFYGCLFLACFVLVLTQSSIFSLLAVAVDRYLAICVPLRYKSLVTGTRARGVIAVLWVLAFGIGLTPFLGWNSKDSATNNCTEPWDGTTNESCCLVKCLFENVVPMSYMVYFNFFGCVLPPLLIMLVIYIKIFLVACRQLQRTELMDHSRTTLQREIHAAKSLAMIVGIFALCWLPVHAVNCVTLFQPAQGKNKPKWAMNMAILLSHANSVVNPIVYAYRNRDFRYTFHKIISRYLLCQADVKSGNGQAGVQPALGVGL
ASSAY TEXT: Adenosine receptor TR-FRET binding assay (A2b)
STUDY CONDITIONS: TR-FRET, inhibition of binding of 30 nM CA200645, CHO cell membranes
MEASUREMENT KIND: pKi
The value called pKi is obtained by taking minus log10 of the concentration in mol/L.

Before answering, review these 6 worked examples.
• Cc1cc(-c2sc(NC(=O)N3CCC4(CC3)CC(=O)N(C)C4)nc2-c2cccc(C#N)c2)cc(C)n1 = 8.44
• Cc1cc(-c2sc(NC(=O)N3CCNCC34CCC4)nc2-c2cccc(C#N)c2)cc(C)n1 = 7.05
• Cc1cc(-c2sc(NC(=O)N3CCC4(CCNC(=O)C4)CC3)nc2-c2cccc(C#N)c2)cc(C)n1 = 8.42
• Cc1cc(-c2sc(NC(=O)N3CCC(C)(O)CC3)nc2-c2cccc(C#N)c2)cc(Cl)n1 = 8.96
• Cc1cc(-c2sc(NC(=O)N3CCC(C(=O)O)CC3)nc2-c2cccc(C#N)c2)cc(C)n1 = 7.63
• Cc1cc(-c2sc(NC(=O)N3CC[S+]([O-])CC3)nc2-c2cccc(C#N)c2)cc(C#N)n1 = 7.70

# evaluate next
Query: State the recorded pKi for this entry: `Cc1cc(-c2sc(NC(=O)N3CCC(C#N)(CO)CC3)nc2-c2cccc(C#N)c2)cc(CO)n1`
Reply: 8.49

----------
SYSTEM UNDER TEST: human Adenosine A2b receptor (Homo sapiens (Human), UniProt P29275)
ASSAY TEXT: Adenosine receptor TR-FRET binding assay (A2b)
STUDY CONDITIONS: TR-FRET, inhibition of binding of 30 nM CA200645, CHO cell membranes
Method: Biological Example 1—Adenosine Receptor Time-Resolved Fluorescence Resonance Energy Transfer (TRFRET) Binding Assay […] Serial dilution (1:3 dilutions) of test compounds in neat DMSO and transfer of a 400 nL sample of test compound into the assay plate was carried out using the Mosquito (TTP Labtech, UK). […] Total and non-specific binding of CA200645 was determined in the absence and presence of 10 μM XAC, respectively. […]
MEASUREMENT KIND: Ki
State the value, then name its unit.

Query: State the recorded Ki for this entry: `Cc1cc(-c2sc(NC(=O)N3CCNC[C@@H]3C)nc2-c2cccc(C#N)c2)cc(C)n1`
Reply: 19.6 nM

Query: What do we get for `Cc1cc(-c2sc(NC(=O)N3CCC4(CCOC(=O)N4)CC3)nc2-c2cccc(C#N)c2)cc(C)n1` ?
Reply: 3.4 nM

Query: What do we get for `Cc1cc(-c2sc(NC(=O)N3CCN[C@H](C(F)(F)F)C3)nc2-c2cccc(C#N)c2)cc(C)n1` ?
Reply: 14.5 nM

Query: What do we get for `CCN1CCN(C(=O)Nc2nc(-c3cccc(C#N)c3)c(-c3cc(C)nc(C)c3)s2)CC1` ?
Reply: 6.2 nM

Query: What do we get for `Cc1cc(-c2sc(NC(=O)N3CC[C@H](C#N)C3)nc2-c2cccc(C#N)c2)cc(C)n1` ?
Reply: 1.5 nM

Query: What do we get for `Cc1cc(-c2sc(NC(=O)N3CCC(C#N)(C#N)CC3)nc2-c2cccc(C#N)c2)cc(C)n1` ?
Reply: 1.1 nM

Query: What do we get for `Cc1cc(-c2sc(NC(=O)N3CCCC3)nc2-c2cccc(C#N)c2)cc(Cl)n1` ?
Reply: 0.7 nM

Query: What do we get for `Cc1cc(-c2sc(NC(=O)N3CC[C@@H]3C(C)(C)O)nc2-c2cccc(C#N)c2)cc(C)n1` ?
Reply: 102 nM

Query: What do we get for Cc1cc(-c2sc(NC(=O)N3CC(=O)N4CCCCC4C3)nc2-c2cccc(C#N)c2)cc(C)n1 (stereo not drawn) ?
Reply: 5.9 nM

Query: What do we get for `Cc1cc(-c2sc(NC(=O)N3CC[C@H]3C(C)(C)O)nc2-c2cccc(C#N)c2)cc(C)n1` ?
Reply: 5.1 nM

Query: What do we get for `Cc1cc(-c2sc(NC(=O)N3CCN[C@H](C(C)(C)O)C3)nc2-c2cccc(C#N)c2)cc(C)n1` ?
Reply: 4.8 nM

Query: What do we get for `Cc1cc(-c2sc(NC(=O)N3CC4(COC4)C3)nc2-c2cccc(C#N)c2)cc(C(F)(F)F)n1` ?
Reply: 0.7 nM

Query: What do we get for `Cc1cc(-c2sc(NC(=O)N3CCN(C4COC4)CC3)nc2-c2cccc(C#N)c2)cc(C(F)(F)F)n1` ?
Reply: 3.2 nM

Query: What do we get for `Cc1cc(-c2sc(NC(=O)N3CC[C@@H](C#N)C3)nc2-c2cccc(C#N)c2)cc(C)n1` ?
Reply: 2.5 nM

Query: What do we get for `Cc1cc(-c2sc(NC(=O)N3CCC4(CC3)C(=O)N(C)C(=O)N4C)nc2-c2cccc(C#N)c2)cc(CO)n1` ?
Reply: 7.5 nM

----------
SYSTEM UNDER TEST: human Adenosine A2b receptor (Homo sapiens (Human))
ASSAY TEXT: Adenosine receptor TR-FRET binding assay (A2b)
STUDY CONDITIONS: TR-FRET, inhibition of binding of 30 nM CA200645, CHO cell membranes
Reported Ki is given for each of the following compounds.
Return type: number; implicit unit nM.

* Cc1cc(-c2sc(NC(=O)N3C[C@@H]4C[C@H]3CN4)nc2-c2cccc(C#N)c2)cc(Cl)n1 [Example 5.6] | 4.2
* Cc1cc(-c2sc(NC(=O)N3CCC(C)(C#N)C3)nc2-c2cccc(C#N)c2)cc(C2COC2)n1 (centres unmarked) [Example 6.110] | 3.6
* Cc1cc(-c2sc(NC(=O)N3CCC(C)(C#N)CC3)nc2-c2cccc(C#N)c2)cc(C2COC2)n1 [Example 6.111] | 6.4
* Cc1cc(-c2sc(NC(=O)N3CC[C@H](O)C3)nc2-c2cccc(C#N)c2)cc(C)n1 [Example 4.5] | 1.4
* Cc1cc(-c2sc(NC(=O)N3CCNCC3)nc2-c2cccc(C#N)c2)cc(C)n1 [Example 7] | 11.1
* Cc1cc(-c2sc(NC(=O)N3CCN4C(=O)NCCC4C3)nc2-c2cccc(C#N)c2)cc(C)n1 (centres unmarked) [Example 6.42] | 9
* Cc1cc(-c2sc(NC(=O)N3CC4CCC(C3)N4)nc2-c2cccc(C#N)c2)cc(C)n1 [Example 13.11] | 58.4

# evaluate next
Query: Form entry - test system: human Adenosine A2b receptor (Homo sapiens (Human)); read-out: Ki; compound: Cc1cc(-c2sc(NC(=O)N3CCS(=N)(=O)CC3)nc2-c2cccc(C#N)c2)cc(Cl)n1 [Example 3.12]
Reply: 1

----------
SYSTEM UNDER TEST: human Adenosine A2b receptor (Homo sapiens (Human))
ASSAY TEXT: Adenosine receptor TR-FRET binding assay (A2b)
STUDY CONDITIONS: TR-FRET, inhibition of binding of 30 nM CA200645, CHO cell membranes
MEASUREMENT KIND: Ki (nM)
Return type: number; implicit unit nM.

Before answering, review these 2 worked examples.
• Cc1cc(-c2sc(NC(=O)N3CC(O)C3)nc2-c2cccc(C#N)c2)cc(C)n1 = 0.6
• Cc1cc(-c2sc(NC(=O)N3CCC4(CCC(=O)NC4)CC3)nc2-c2cccc(C#N)c2)cc(C)n1 = 4.6

Query: State the recorded Ki for this entry: `Cc1cc(-c2sc(NC(=O)N3CCC(C)(N)CC3)nc2-c2cccc(C#N)c2)cc(Cl)n1`
Reply: 4.3

Query: What do we get for `Cc1cc(-c2sc(NC(=O)N3CCOC[C@H]3C)nc2-c2cccc(C#N)c2)cc(C)n1` ?
Reply: 1.9

----------
SYSTEM UNDER TEST: human Adenosine A1 receptor (Homo sapiens (Human))
Sequence (P30542 whole entry): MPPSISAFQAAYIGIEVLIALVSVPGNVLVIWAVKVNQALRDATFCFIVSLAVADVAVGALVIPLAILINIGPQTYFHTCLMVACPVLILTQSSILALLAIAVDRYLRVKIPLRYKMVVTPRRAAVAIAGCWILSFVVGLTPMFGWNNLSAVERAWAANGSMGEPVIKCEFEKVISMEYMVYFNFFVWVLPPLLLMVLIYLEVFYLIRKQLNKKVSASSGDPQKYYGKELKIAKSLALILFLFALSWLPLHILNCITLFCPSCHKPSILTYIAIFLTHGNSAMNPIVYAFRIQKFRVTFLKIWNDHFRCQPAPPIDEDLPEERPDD
ASSAY TEXT: Adenosine receptor TR-FRET binding assay (A1)
STUDY CONDITIONS: inhibition of binding of 100 nM CA200645, CHO cell membranes
MEASUREMENT KIND: Ki (nM)
Return type: number; implicit unit nM.

Before answering, review these 10 worked examples.
• Cc1cc(-c2sc(NC(=O)N3C[C@H](C)NC[C@@H]3C)nc2-c2cccc(C#N)c2)cc(C)n1 [Example 7.7] = 49
• Cc1cc(-c2sc(NC(=O)N3CC4(COC4)C3)nc2-c2cccc(C#N)c2)cc(CF)n1 [Example 16.6] = 42
• Cc1cc(-c2sc(NC(=O)N3CCN4C(=O)CCC4C3)nc2-c2cccc(C#N)c2)cc(C)n1 (stereo not drawn) [Example 6.18] = 70
• Cc1cc(-c2sc(NC(=O)N3CC(C#N)C3)nc2-c2cccc(C#N)c2)cc(C)n1 [Example 4.26] = 4
• Cc1cc(-c2sc(NC(=O)N3CC4(CCN(C)C4=O)C3)nc2-c2cccc(C#N)c2)cc(C)n1 [Example 6.92] = 66
• Cc1cc(-c2sc(NC(=O)N3CCC(C#N)(C(C)(C)O)CC3)nc2-c2cccc(C#N)c2)cc(C)n1 [Example 6.41] = 111
• Cc1cc(-c2sc(NC(=O)N3CCC4(CC3)C(=O)N(C)C(=O)N4C)nc2-c2cccc(C#N)c2)cc(CO)n1 [Example 9.5] = 174
• Cc1cc(-c2sc(NC(=O)N3CCNC[C@H]3CO)nc2-c2cccc(C#N)c2)cc(C)n1 [Example 13.6] = 220
• Cc1cc(-c2sc(NC(=O)N3CCC4(CC3)CNC4=O)nc2-c2cccc(C#N)c2)cc(CO)n1 [Example 9.1] = 95
• Cc1cc(-c2sc(NC(=O)N3CC4(COC4)C3)nc2-c2cccc(C#N)c2)cc(C)n1 [Example 4.12] = 31

Query: State the recorded Ki for this entry: Cc1cc(-c2sc(NC(=O)N3CCN(C)CC3)nc2-c2cccc(C#N)c2)cc(Cl)n1 [Example 3.6]
Reply: 88

Query: What do we get for Cc1cc(-c2sc(NC(=O)N3CC4(COC4)C3)nc2-c2cccc(C#N)c2)cc(C(C)(C)O)n1 [Example 12.2] ?
Reply: 6

Query: What do we get for Cc1cc(-c2sc(NC(=O)N3CCO[C@H](CO)C3)nc2-c2cccc(C#N)c2)cc(C)n1 [Example 4.21] ?
Reply: 10

Query: What do we get for Cc1cc(-c2sc(NC(=O)N3CCN[C@@H](C(N)=O)C3)nc2-c2cccc(C#N)c2)cc(Cl)n1 [Example 5.7] ?
Reply: 48

Query: What do we get for Cc1cc(-c2sc(NC(=O)N3CCN[C@H](C(=O)O)C3)nc2-c2cccc(C#N)c2)cc(Cl)n1 [Example 3.5] ?
Reply: 434
